Each recorded value in this set is attributed to patent US20230082611A1.

pEC50 values for the molecules below.
# Test system: RSV Long strain
# METHOD DESCRIPTION: RSV microneutralization assay, RSV Long strain
# Type: cell-based
# TEST SETTINGS: human respiratory syncytial virus, HEp-2, […], read-out: RSV Long EC50
Convention used: pEC50 is expressed as -log10 of the molar concentration.

CPD SMILES	pEC50
C#CCOCCOCCOCCOCCOCCOCCOCCOCCN[C@H]1CCN(c2nc3cc([C@@H]4CCCCN4C(=O)c4cc(Cl)ccc4NS(C)(=O)=O)nn3cc2C)C1	7.37
C#CCOCCOCCOCCOCCN1CCN(CCCN[C@H]2CCN(c3nc4cc([C@H]5CCCCN5C(=O)c5cc(Cl)ccc5NS(C)(=O)=O)nn4cc3C)C2)CC1	7.01

### Prompt Which pEC50 is listed for "C#CCOCCOCCOCCOCCNCC1CN(c2nc3cc([C@@H]4CCCCN4C(=O)c4cc(Cl)ccc4NS(C)(=O)=O)nn3cc2C)C1" ?
### Response 7.01
